- MEASUREMENT PROTOCOL: yeast display, Sf9 membrane polyspecificity reagent, FACS + sequencing; frameworks hold sequencing errors
QUANTITY: polyreactivity (PSR sort gate)

QVQLVESGGGLVQAGGTLRLSCAASGSIFYPNAMGWYRQAPGKERELVAASSWTGGSTRYADSVKGRFTISRDIAKNTVYLQMNSLKPEDTAVYYCAALYVYRPRTPYGYSGQGTQVTVSS: high polyreactivity
QVQLVESGGGLVQAGGSLRLSCAASGSTFDIYAMGWYRQAPGKERELVAAIRGRGGSTYYADSVKGRFTISRDNAKNTVSLQMNSLKPEDTAVYYCAAQTKRQRREFGFWGQGTQVTVSS: high polyreactivity
